- Tested on: cancer cell lines from the cancer cell line encyclopedia (CCLE)
- Measurement Notes: Cell line profiling (CLiP) proliferation experiment
- Format: cell-based
- Measurement Context: Homo sapiens, MEC1, MEC-1 (haematopoietic_and_lymphoid_tissue); read-out: Crossing Point
Experimental Readout: IC50
Hi, when you answer, please include the unit after the number. Thanks!

*Q* # IC50 lookup, item CC(C)[C@@]12C[C@@H](O)[C@@](C)(O1)[C@@H]1CC[C@@H](C)[C@H]1[C@@H]2OC(=O)/C=C/c1ccccc1
*A* 22.2 µM

---

- Tested on: cancer cell lines from the cancer cell line encyclopedia (CCLE)
- Measurement Notes: Cell line profiling (CLiP) proliferation experiment
- Format: cell-based
- Measurement Context: Homo sapiens, HCT-15, cell line HCT-15, large_intestine; read-out: Crossing Point
Experimental Readout: IC50

*Q* Provide the documented IC50 with cancer cell lines from the cancer cell line encyclopedia (CCLE) as the system for CC(C)[C@@]12C[C@@H](O)[C@@](C)(O1)[C@@H]1CC[C@@H](C)[C@H]1[C@@H]2OC(=O)/C=C/c1ccccc1
*A* > 30 µM

Data provenance: paper PMC4476799
